Biological target: Human recombinant carboxy-terminal his-tagged LDHA (amino acids 2-332) (Homo sapiens)
Test: LDHA enzyme inhibition assay (NADH fluorescence)
Details: LDHA IC50 (μM), 1 nM LDHA, NADH and pyruvate, stereochemistry of tested sample given
RESULT TYPE: IC50 (µM)
The reply should be a number in µM, with the unit left off.

# MOLECULE, READOUT UNIT, IC50
records = [
    ("CC(O)c1cccc(Nc2cccc(C3(c4ccsc4)CC(=O)C(Sc4ccccc4Cl)C(=O)N3)n2)c1 (centres unmarked)", "µM", 0.095),
    ("Cn1nccc1Nc1cccc(C2(c3ccsc3)CC(=O)C(Sc3ccccc3Cl)C(=O)N2)n1 (centres unmarked)", "µM", 0.073),
    ("C[C@@H](Nc1cccc(C2(c3ccsc3)CC(=O)C(Sc3ccccc3Cl)C(=O)N2)n1)c1ccc(F)cc1 (mixture of isomers)", "µM", 0.03),
    ("O=C1CC(c2ccsc2)(c2cccc(Oc3cccc(C(F)(F)F)c3)n2)NC(=O)C1Sc1ccccc1Cl (centres unmarked) [Example 169]", "µM", 0.01),
    ("CCC(Oc1cccc(C2(c3ccsc3)CC(=O)C(Sc3ccccc3Cl)C(=O)N2)n1)c1ccc(F)cc1 (centres unmarked)", "µM", 0.025),
]

// query Fill in: IC50 of O=C1CC(c2ccsc2)(c2cccc(Oc3cncc(F)c3)n2)NC(=O)C1Sc1ccccc1Cl (single isomer, unassigned) [Example 202] is ___
// result 0.018

// query Fill in: IC50 of O=C1CC(c2ccsc2)(c2cccc(Oc3ccc(F)c(Cl)c3)n2)NC(=O)C1Sc1ccccc1Cl (single isomer, unassigned) [Example 112] is ___
// result 0.01
